# experiment: soluble on expression in E. coli; label from the status in PepcDB or PDB records
measuredAttribute: soluble on expression in E. coli

chain: MTQTNNPLHGITLETIITQLVEHYGWEELGARIKIRCFTEAPSIKSSLRFLRKTDWAREKVEYLYLKTNKLPLPAAKSIQAPAKEPSKKSAPKPNSKPTQTKVVTPTPAVEGQVNSHIWGKRDLEHHHHHH
endpointResult: soluble

chain: MVTLILLAGGSGTRASLNLPKQYYRIEEKMVIEYTLENVSRVKGVDNIILVSNPRFMDTALELKESFPKIKDVAKGGRTRNESIYNGFMKVPQKESKILVHDAVRPFTPRWVFERIISLLDERDVITTVNPITGNLIELDNGKVKRIYDRSKFAIGEAPTGYRYGALKKTLEVAVSNGTLNEIPHDIVLAMNAGFDVYVLPCNCFNLKITFKEDIEIARTLIKMLEERE
endpointResult: soluble

chain: SLSMKLLIADDEDTIRNGIAKYIKLHTDRFSQIYLAENGQQALDIILQYQPDMMLLDVQMPLKTGLEVLQEAQKLSLVPKTIILSGYDDFEYARKALRYGAKDYLLKPCRSSEILEAINKLVQEQLGTKEDVECEEGTGIHYIVSSAIEYMEEYYHKNLTLIEVSNKVGITAGYLSTLFTQNMNCGFVEYLNKIRIKHACSYLEQNYFKTYEIAYKVGFKDEKYFSKVFKKETGITPYEYRRDHSIGKNIRTEG
endpointResult: soluble

====

# experiment: soluble on expression in E. coli; label from the status in PepcDB or PDB records

chain: MFQKLLAFLTVVVFVSAAGNSCKIGKVINKPVIDGTPVYWPASWNETQPAPQLEKEQSCSWYVTIPRGYYAKLIISGKTTDKDSRFQTVDSAGNLIQTTHEKMVPYYFPASKFTLAVSNEGSATFAFKVVWWPLPTEKYVDIVASIGQVINVTETVVAMEYAAPGGITLLTFPEDLKNYNSLRSTLIYDGSSLTSATYVSNLFLLNQSKKQWTSSQDGIVVVNVEASRSMNKLLIQGSVYLAGIDEIVELHPQPNSIYNGTVNAGAHMSSLVAVSDLELQMIDVQMKDDSTVSVYYGSPDAFTLDKTYTGAELKKALPLPFGGYFVQFVVSSGKAVFTFKS
soluble on expression in E. coli: not soluble

chain: MGSDKIHHHHHHMLDLKSYREKELASYDLDVELFNEFNFSVYNVMPLRKAFLISTDKGEKILKKIDYTIEEFKFVLAAVNYIKNENEFNRIIDFNKTQSGEYYCIKNGDLYCVMDMIEGKECEFSNPVDLSISSFGLGQLHSASEGFRYSKIASKNICGKMIKGFKRKKEEVNFLKKMVNLYESLNEFDEIFIKNVDYYLEQIDKSIDIMNKSQYYKLCSEEDKIVLCHHDLAHHNIIIKDEEAYFIDFDYAIIDLKVHDLSNIISKAAKVFNYSIDNSKIIISNYCKSNTLSKNEMEVLFGMLSFPEDFYEIVKSYYTKRKDWSNEEFINKMKRKMANEENRVEFLKNFKEDLKI
soluble on expression in E. coli: not soluble

====

# experiment: soluble on expression in E. coli; label from the status in PepcDB or PDB records

chain: MSAYRHAVERIDSSDLACGVVLHSAPGYPAFPVRLATEIFQRALARLPGDGPVTLWDPCCGSGYLLTVLGLLHRRSLRQVIASDVDPAPLELAAKNLALLSPAGLTARELERREQSERFGKPSYLEAAQAARRLRERLTAEGGALPCAIRTADVFDPRALSAVLAGSAPDVVLTDLPYGERTHWEGQVPAQPVAGLLRSLASALPAHAVIAVTDRSRKIPVAPVKALERLKIGTRSAVLVRAADVLEAGP
soluble on expression in E. coli: soluble

chain: MSLATLKDVAELAGVGLSTASRAISGKGPVSADAAARVKAAIAELNFRPSSIGRAMATQQLGIIGLFVPTFFGSYYGTILKQTDLELRAVHRHVVVATGCGESTPREQALEAVRFLIGRDCDGVVVISHDLHDEDLDELHRMHPKMVFLNRAFDALPDASFCPDHRRGGELAAATLIEHGHRKLAVISGPFTASDNVERLDGFFDELARHGIARDSVPLIESDFSPEGGYAATCQLLESKAPFTGLFCANDTMAVSALARFQQLGISVPGDVSVIGYDDDYSAAYAAPALTSVHIPTAELTQNAVRWLINQCYGTKWEIFREFPVTVSMRASVAREGHHHHHH
soluble on expression in E. coli: soluble
